Consider the following variants; for each one, report its self-cleavage.
B1: CPEB3 Ribozyme (parent)
chain: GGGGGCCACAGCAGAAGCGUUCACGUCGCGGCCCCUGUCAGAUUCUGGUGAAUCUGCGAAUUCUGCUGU

- Variants of: B1
- measurement description: self-cleavage, relative activity (ratio to wild type); higher = more cleavage; co-transcriptional
One number for each entry.

Solved entries (count: 6):
# sequence, measurement type, value measured
records = [
    ("GGGGGCCACAGCAGAUGCGUUCACGUCGCGGCCCCUGUCAGAUUCUGGUGAAUCUGCGAAUUAUGCUGU [A16U C63A]", "self-cleavage", 0.501),
    ("GGGGGCCACAGCCGAAGCGUUCACGUCGCGGCCCAUGUCAGAUUCUGGUGAAUCUGCGAAUUCUGCUGU [A13C C35A]", "self-cleavage", 0.281),
    ("GGGGGCCACAGCAGAAGAGUUCACGUCGCGGCCCCUGUCAGAUUCUGGUGAAUCUGCGAGUUCUGCUGU [C18A A60G]", "self-cleavage", 0.195),
    ("GGGGGCCAUAGCAGAAGCGUUCACGUCGCGGCCCCUGUCAGAUUCUGGUGAAUCUGCGAAUUCUGGUGU [C9U C66G]", "self-cleavage", 0.921),
    ("GGGGGCCACAGCUGAAGCGUUCACCUCGCGGCCCCUGUCAGAUUCUGGUGAAUCUGCGAAUUCUGCUGU [A13U G25C]", "self-cleavage", 0.0789),
    ("GGGGGCCACAGCAGAAGAGUUCACGUCGCGGCCCCUGUCAGAUUCUGGAGAAUCUGCGAAUUCUGCUGU [C18A U49A]", "self-cleavage", 0.16),
]

Hello, I would appreciate it if you could give self-cleavage for each entry below.
1. GGGGGCCACAGCAGAAGCGUUCACGUCGCGGCCCCUGUCAGAUUCUGGUGGAUCUGCGGAUUCUGCUGU [A51G A59G]
2. GGGGGCCACAGCACAAGCGUUCACGUCGCGGCCCCUGUCUGAUUCUGGUGAAUCUGCGAAUUCUGCUGU [G14C A40U]
3. GGGGGCCACAGCAGAAGCGUUCACGUCGCGGGCCCUGUCAGAUCCUGGUGAAUCUGCGAAUUCUGCUGU [C32G U44C]

-- reply
1. 0.963
2. 0.199
3. 0.452

Please supply self-cleavage for each of the following items, keeping them in order.
1. GGGGGCCAGAGCAGAAGCGUUCACGUCACGGCCCCUGUCAGAUUCUGGUGAAUCUGCGAAUUCUGCUGU [C9G G28A]
2. GGGGGCCACAGCAGAAGCGUUCACGUCGCGUCCCCUGUCAGAUUCUGGUGAAUAUGCGAAUUCUGCUGU [G31U C54A]
3. GGGGGCCACAGCAGAGGCGUUCACGUCGCGGCCCCUGUCAGAUCCUGGUGAAUCUGCGAAUUCUGCUGU [A16G U44C]
4. GGGGGCCACAGCAGAAGCGUUCACGUCGCGGCCCCUGUCAGAUUCUGGUGAGUCUGCGAAUUCUUCUGU [A52G G65U]
5. GGGCGCCACAGCAGAAGCGUUCACGUCGCGGCCCCUGUCAGAUUCUGGUGAAUCUGCGAAUUCUGCUAU [G4C G68A]

-- reply
1: 0.264; 2: 0.306; 3: 0.734; 4: 0.894; 5: 0.976

Respectfully, I request self-cleavage for each entry included below.
1. GGGGGCCACAUCAGAAGCGUUCACCUCGCGGCCCCUGUCAGAUUCUGGUGAAUCUGCGAAUUCUGCUGU [G11U G25C]
2. GGGGGGCACAGCAGAAGCGUUCACGUCGCGGCCCCUGUAAGAUUCUGGUGAAUCUGCGAAUUCUGCUGU [C6G C39A]
3. GGGGGCCACAGCCGAAGCGUUCACGUCGCGGCCCCUGUCAAAUUCUGGUGAAUCUGCGAAUUCUGCUGU [A13C G41A]

-- reply
0.0857
0.173
0.27

For every listed record, write down its self-cleavage.
1. GGGGGCCACAGCAGAAGCGUUCACGUCGCGGCCCCUGUCAGAUUCUGGUGAAUAUCCGAAUUCUGCUGU [C54A G56C]
2. GGGGGCCACAGCAGAAGCGUUCACGUCGCGUCCCCUGUCAGAUUCUGGUGAAUCUGCGAAUUCUACUGU [G31U G65A]
3. GGUGGCCACAGCAGAAGCGUUCACGUCGCGGCCCCUGUCAGAUUCUGGUGAAUCUGCGAAUUCUUCUGU [G3U G65U]
4. GAGGGCCACAGCAGAAGCGUUCACGUCGCGGCCCCUGUCAGAUUCUGGUGAAUCUGCGAAGUCUGCUGU [G2A U61G]
5. GGGGGCCACAUCAGAAGCGUUCACGUCGCGGCCCCUGUCAGAUUCUGGUGAAACUGCGAAUUCUGCUGU [G11U U53A]

-- reply
[0.431, 0.517, 0.101, 0.0696, 0.562]

Hello, the source for this data is the RNAGym collection of RNA variant scans (doi:10.7554/elife.80360), in case you need it.
